PROTOCOL DETAILS: AUC (0 to infinity) in rat at 5 mg/kg, iv measured for 1 to 24 hrs by LC-MS analysis
Type: ADME, organism-based
CONDITION NOTES: in vivo, time 1-24 hrs
QUANTITY KIND: AUC(0-inf) (ng·h/mL)
Report the value in ng·h/mL with no unit label.

Requested read-out: AUC(0-inf). Entry: CCc1ccccc1C(=O)c1cnc2cc(O)ccc2c1Oc1ccc(/C=C/C(=O)O)cc1 3050

###

PROTOCOL DETAILS: MRT (0 to t) in rat at 20 mg/kg, po measured for 1 to 24 hrs by LC-MS analysis
Assay type: ADME, organism-based
CONDITION NOTES: in vivo, time 1-24 hrs
QUANTITY KIND: MRT last (h)
The reply should contain only the number, in h.

Recorded MRT last of CCc1ccccc1C(=O)c1cnc2cc(O)ccc2c1Oc1ccc(/C=C/C(=O)O)cc1 , please. 2.19

###

PROTOCOL DETAILS: Apparent volume of distribution in rat at 5 mg/kg, iv measured for 1 to 24 hrs by LC-MS analysis
Format: ADME, organism-based
CONDITION NOTES: in vivo, time 1-24 hrs, read-out: Vz
QUANTITY KIND: Vd
Report field: quantity (unit follows the number).

Which measured Vd value corresponds to CCc1ccccc1C(=O)c1cnc2cc(O)ccc2c1Oc1ccc(/C=C/C(=O)O)cc1 ? 2 L/kg

###

PROTOCOL DETAILS: Tmax in rat at 5 mg/kg, iv measured for 1 to 24 hrs by LC-MS analysis
Type: ADME, organism-based
CONDITION NOTES: in vivo, time 1-24 hrs
QUANTITY KIND: Tmax (min)
# output: bare number, implied unit min

Report Tmax for CCc1ccccc1C(=O)c1cnc2cc(O)ccc2c1Oc1ccc(/C=C/C(=O)O)cc1 please. 4.98

###

System: MCF7
PROTOCOL DETAILS: Induction of cell cycle arrest at G0/G1 phase in human MCF7 cells at 10 uM incubated for 24 hrs by PI/RNase staining based flow cytometry (reference value: 53.5 +/- 1.96 %)
Type: functional
QUANTITY KIND: Activity
Answer as a quantity: numeral, then unit.

See these solved cases before continuing.
CCc1cc(/C=C/C(=O)O)ccc1Oc1c(C(=O)c2ccccc2CC)cnc2cc(O)ccc12 : 64%
C[C@]12CC[C@@H]3c4ccc(O)cc4C[C@@H](CCCCCCCCC[S+]([O-])CCCC(F)(F)C(F)(F)F)[C@H]3[C@@H]1CC[C@@H]2O (some centres undefined) : 66.83%
CC/C(=C(\c1ccccc1)c1ccc(OCCN(C)C)cc1)c1ccccc1 : 67.6%

Let us move to another entry and its Activity.
Given the entry CCc1ccccc1C(=O)c1cnc2cc(O)ccc2c1Oc1ccc(/C=C/C(=O)O)cc1 , report its measured Activity. 59.7%

###

PROTOCOL DETAILS: Oral bioavailability in rat at 20 mg/kg measured for 1 to 24 hrs by LC-MS analysis
Type: ADME, organism-based
CONDITION NOTES: in vivo, time 1-24 hrs
QUANTITY KIND: bioavailability (%)
# unit: % | format: bare number

Need bioavailability of CCc1ccccc1C(=O)c1cnc2cc(O)ccc2c1Oc1ccc(/C=C/C(=O)O)cc1 , thanks. 5.32

###

PROTOCOL DETAILS: AUC (0 to t) in rat at 5 mg/kg, iv measured for 1 to 24 hrs by LC-MS analysis
Type: ADME, organism-based
CONDITION NOTES: in vivo, time 1-24 hrs
QUANTITY KIND: AUC(0-t)

Quick one: AUC(0-t) of CCc1ccccc1C(=O)c1cnc2cc(O)ccc2c1Oc1ccc(/C=C/C(=O)O)cc1 ? 3050 ng·h/mL

###

PROTOCOL DETAILS: MRT (0 to infinity) in rat at 20 mg/kg, po measured for 1 to 24 hrs by LC-MS analysis
Assay type: ADME, organism-based
CONDITION NOTES: in vivo, time 1-24 hrs
QUANTITY KIND: MRT inf (h)
Write it as a number; the unit h goes unstated.

What value of measured MRT inf is listed for CCc1ccccc1C(=O)c1cnc2cc(O)ccc2c1Oc1ccc(/C=C/C(=O)O)cc1 ? 2.66

###

PROTOCOL DETAILS: Cmax in rat at 20 mg/kg, po measured for 1 to 24 hrs by LC-MS analysis
Format: ADME, organism-based
CONDITION NOTES: in vivo, time 1-24 hrs
QUANTITY KIND: Cmax (µg/mL)
Please give a number only; it is taken to be in µg/mL.

What Cmax value was documented for this molecule, CCc1ccccc1C(=O)c1cnc2cc(O)ccc2c1Oc1ccc(/C=C/C(=O)O)cc1 ? 0.501

###

PROTOCOL DETAILS: MRT (0 to infinity) in rat at 5 mg/kg, iv measured for 1 to 24 hrs by LC-MS analysis
Format: ADME, organism-based
CONDITION NOTES: in vivo, time 1-24 hrs
QUANTITY KIND: MRT inf (min)
Answer with a number only, understood to be in min.

Can you share its MRT inf? I mean this compound: CCc1ccccc1C(=O)c1cnc2cc(O)ccc2c1Oc1ccc(/C=C/C(=O)O)cc1 7.56

Sourced from ChEMBL document CHEMBL5584239
